Reported values of %-inhibition, ALK for individual entries
- assayed.target: panel of more than 300 wild-type and mutant kinases (313 kinase panel) (Homo sapiens)
- test.description: Kinase profiling in a biochemical assay panel (mobility shift assays and ELISA), %-inhibition at 1 μM; selectivity entropy
- assay.context: kinase ALK; 1 μM compound
Express it in %; write the number only.

Solved cases (5 shown):
compound="CNC(=O)c1cc(Oc2ccc(NC(=O)Nc3ccc(Cl)c(C(F)(F)F)c3)c(F)c2)ccn1 [regorafenib]" assayed_target="panel of more than 300 wild-type and mutant kinases (313 kinase panel) (Homo sapiens)" measured_result=-3.43
compound="CS(=O)(=O)CCNCc1ccc(-c2ccc3ncnc(Nc4ccc(OCc5cccc(F)c5)c(Cl)c4)c3c2)o1 [lapatinib]" assayed_target="panel of more than 300 wild-type and mutant kinases (313 kinase panel) (Homo sapiens)" measured_result=1.72
compound="COc1cc2nccc(Oc3ccc(NC(=O)C4(C(=O)Nc5ccc(F)cc5)CC4)cc3)c2cc1OC [cabozantinib]" assayed_target="panel of more than 300 wild-type and mutant kinases (313 kinase panel) (Homo sapiens)" measured_result=49
compound="Cc1cn(-c2cc(NC(=O)c3ccc(C)c(Nc4nccc(-c5cccnc5)n4)c3)cc(C(F)(F)F)c2)cn1 [nilotinib]" assayed_target="panel of more than 300 wild-type and mutant kinases (313 kinase panel) (Homo sapiens)" measured_result=-8
compound="CO[C@H]1C[C@@H]2CC[C@@H](C)[C@@](O)(O2)C(=O)C(=O)N2CCCC[C@H]2C(=O)O[C@H]([C@H](C)C[C@@H]2CC[C@@H](OC(=O)C(C)(CO)CO)[C@H](OC)C2)CC(=O)[C@H](C)/C=C(\\C)[C@@H](O)[C@@H](OC)C(=O)[C@H](C)C[C@H](C)/C=C/C=C/C=C/1C [temsirolimus]" assayed_target="panel of more than 300 wild-type and mutant kinases (313 kinase panel) (Homo sapiens)" measured_result=-2

Here is the next item to consider.
compound Cc1ccc(C(=O)Nc2ccc(CN3CCN(C)CC3)c(C(F)(F)F)c2)cc1C#Cc1cnc2cccnn12 [ponatinib] , %-inhibition, ALK observed: 9

----------
- assayed.target: panel of more than 300 wild-type and mutant kinases (313 kinase panel) (Homo sapiens)
- test.description: Kinase profiling in a biochemical assay panel (mobility shift assays and ELISA), %-inhibition at 1 μM; selectivity entropy
- assay.context: kinase AKT1; 1 μM compound
metric: %-inhibition, AKT1 (%)
Reply numerically in %, unit not repeated.

Solved cases (3 shown):
compound_structure=CC(=O)Nc1cccc(-n2c(=O)n(C3CC3)c(=O)c3c(Nc4ccc(I)cc4F)n(C)c(=O)c(C)c32)c1 u=% measured_result=-3
compound_structure=Cc1cn(-c2cc(NC(=O)c3ccc(C)c(Nc4nccc(-c5cccnc5)n4)c3)cc(C(F)(F)F)c2)cn1 u=% measured_result=11
compound_structure=CO[C@H]1C[C@@H]2CC[C@@H](C)[C@@](O)(O2)C(=O)C(=O)N2CCCC[C@H]2C(=O)O[C@H]([C@H](C)C[C@@H]2CC[C@@H](OCCO)[C@H](OC)C2)CC(=O)[C@H](C)/C=C(\C)[C@@H](O)[C@@H](OC)C(=O)[C@H](C)C[C@H](C)/C=C/C=C/C=C/1C u=% measured_result=-7

Value of %-inhibition, AKT1 reported for the molecule CS(=O)(=O)CCNCc1ccc(-c2ccc3ncnc(Nc4ccc(OCc5cccc(F)c5)c(Cl)c4)c3c2)o1 is 2.63

Form: molecule = Cc1ccc(Nc2nccc(N(C)c3ccc4c(C)n(C)nc4c3)n2)cc1S(N)(=O)=O ; %-inhibition, AKT1 = -2

Entry N#CC[C@H](C1CCCC1)n1cc(-c2ncnc3[nH]ccc23)cn1 — recorded %-inhibition, AKT1 = -5
